Below: molecules with IC50 recorded for Fibroblast growth factor receptor 3 (Homo sapiens, UniProt P22607) in separate published works.

> print(dat)
                                   molecule  observed.value
1  C=CC(=O)NCc1cc2c(cn1)CN(c1c(F)c(OC)cc(OC)c1F)C(=O)N2C1CC1        > 0.2 µM
2  CNC(=O)c1cncc(-c2cnc3cc(-c4cnn(C)c4)c(OC4COC4)nn23)c1       < 0.01 µM
3  COc1cc(OC)c(F)c(-c2ncc3c(-c4ccc5c(c4)CC(C(=O)N4CCN(C)CC4)O5)n[nH]c3n2)c1F (stereo not drawn)        < 0.1 µM
4  COc1cc(OC)c(F)c(-c2ncc3c(-c4ccc(OCCN(C)C)cc4)n[nH]c3n2)c1F        < 0.1 µM
5  COc1cc(OC)c(F)c(-c2ncc3c(-c4ccc5c(c4)CN(S(C)(=O)=O)CC5)n[nH]c3n2)c1F        < 0.1 µM

Next item in the queue.
Value lookup for IC50; key = CNC(=O)c1cc(O)c(F)c(-c2cnn3cc(-c4cnn(C)c4)c(O[C@H]4CCOC4)nc23)c1 < 0.01 µM

###

Below: molecules with pIC50 recorded for Fibroblast growth factor receptor 3 (Homo sapiens) in separate published works.
pIC50: −log10 of the molar value.

> print(dat)
                                   molecule  observed.value
1  CC(C)(CO)n1cc(-c2cnc3ccn4c(C(N)=O)c(-c5c(Cl)cccc5Cl)nc4c3c2)cn1         > 10.00
2  Cc1oncc1S(=O)(=O)N1CC(CC#N)(n2cc(-c3cnn4c(-c5cccc(NC(=O)NCC(F)(F)F)c5)cnc4c3)cn2)C1          > 8.00
3  CN(C)C(=O)Cn1cc(-c2cnc3ccn4c(CO)c(-c5c(Cl)cccc5Cl)nc4c3c2)cn1    8.30 to 9.00
4  CC(=O)N1CCN(Cc2ccc(-c3cnc4ccn5c(CO)c(-c6c(Cl)cccc6Cl)nc5c4c3)cc2)CC1    8.30 to 9.00
5  CNC(=O)c1cncc(-c2cnn3cc(-c4cnn(C)n4)c(N[C@H]4CCOC4)nc23)c1          > 8.00

Test system Fibroblast growth factor receptor 3 (Homo sapiens); read-out pIC50; what value for COC1CCN(C(=O)C(C)n2cc(-c3cnn4c(-c5cccc(NC(=O)NCC(F)(F)F)c5)cnc4c3)cn2)CC1 (stereo not shown) ? > 8.00

Do the same for COc1cc(OC)c(F)c(N2Cc3cnc(NCc4ccccn4)cc3C3(CC3)C2=O)c1F please > 7.00

###

Below: compounds with IC50 recorded for Fibroblast growth factor receptor 3 (Homo sapiens, UniProt P22607) in separate published works.

As a guide, the following entries are already answered.
> print(dat)
                                   compound  observed.value
1  CC(NC(=O)c1ccc(C2CC2)c(-c2ccc3nc(Nc4cnn(C5CC5)c4)ncc3c2)c1)c1cccc(C(F)(F)F)c1 (stereo not shown)       > 1000 nM
2  O=C(Nc1cnccc1[C@H]1C[C@@H](O)[C@@]2(O)CCCC[C@H]2O1)c1c[nH]cc(-c2ccccc2)c1=O      > 10000 nM
3  COc1cc(OC)c(F)c(-c2ncc3c(-c4ccc(N5CCN(C)CC5)nc4)n[nH]c3n2)c1F        < 100 nM
4  CNC(=O)c1cc(F)c(F)c(-c2cnc3cc(-c4cnn(C5CCN(C(C)=O)CC5)c4)c(O[C@H]4CCOC4)nn23)c1         < 10 nM
5  CC(C(=O)N[C@@H]1CCOC1)c1ccc(-c2cnn3c(-c4cccc(NC(=O)NCC(F)(F)F)c4)cnc3c2)cc1 (stereo partly shown)         < 10 nM
6  CC1C(=O)N(C)CCN1c1nc2c(-c3cnn(C)c3)n[nH]c2cc1-c1ccoc1 (stereo not shown)    30 to 200 nM

Next item in the queue.
Value lookup for IC50; key = CNC(=O)c1cc(C)c(F)c(-c2cnn3cc(-c4cnn(CCO)c4)c(N[C@H]4CCOC4)nc23)c1 < 10 nM

###

pIC50: −log10 of the molar value.
Below: compounds with pIC50 recorded for UniProtKB P22607 in separate published works.

As a guide, the following entries are already answered.
> print(dat)
                                   compound  observed.value
1  NC(=O)c1c(-c2c(Cl)cccc2Cl)nc2c3cc(-c4cnn(CC5(F)CCOCC5)c4)cnc3ccn12         > 10.00
2  CN1CCC(n2cc(-c3cnc4ccn5c(C(N)=O)c(-c6c(Cl)cccc6Cl)nc5c4c3)cn2)CC1         > 10.00
3  CNC(=O)c1cc(F)c(F)c(-c2cnc3cc(-c4cnn(C)c4)c(O[C@H]4CCNC4=O)nn23)c1          > 8.00
4  CC(C(=O)N1CCN(C)CC1)n1cc(-c2cnn3c(-c4cccc(NC(=O)NCC(F)(F)F)c4)cnc3c2)cn1 (centres unmarked)          > 8.00
5  CNC(=O)c1cc(C)c(F)c(-c2cnn3cc(-c4cnn([C@@H]5CCN(C)C[C@H]5F)c4)c(N[C@H]4CCOC4)nc23)c1          > 8.00

Value lookup for pIC50; key = COc1cc(OC)c(F)c(N2Cc3cnc(N)c(Oc4ccccc4)c3N(C)C2=O)c1F > 7.00

Do the same for CC(C)(C)[C@@H]1O[C@H](c2ccncc2NC(=O)c2nc(-c3ccccc3)cnc2N)C[C@H](N)[C@H]1O please < 5.00

Do the same for COc1cc(OC)c(F)c(-c2cc3[nH]nc(-c4ccc5c(c4)CN([C@H]4CC[C@H](O)CC4)C5=O)c3cn2)c1F please > 7.00

###

Below: compounds with IC50 recorded for Fibroblast growth factor receptor 3 (Homo sapiens, UniProt P22607) in separate published works.

Value lookup for IC50; key = Cn1cc(-c2cc3ncc(-c4cccc(-n5cccn5)c4)n3nc2OC2COC2)cn1 0.01 to 0.1 µM

Do the same for COc1cc(OC)c(F)c(N2Cc3cnc(N)c(C#N)c3N(CC3CC3)C2=O)c1F please < 0.1 µM

Do the same for O=C(NCC(F)(F)F)Nc1cccc(-c2cnc3cc(-c4cnn(C5CCN(C(=O)N6CCOCC6)CC5)c4)cnn23)c1 please < 0.01 µM

Do the same for COc1cc(OC)c(Cl)c(-c2cc3[nH]nc(-c4cnn(C)c4)c3cn2)c1Cl please < 0.1 µM

###

Below: compounds with IC50 recorded for Fibroblast growth factor receptor 3 (Homo sapiens, UniProt P22607) in separate published works.

As a guide, the following entries are already answered.
> print(dat)
                                   compound  observed.value
1  COc1cc(OC)c(F)c(-c2ncc3c(-c4cnn(C)c4)n[nH]c3n2)c1F        < 100 nM
2  COc1cc(OC)c(Cl)c(-c2cc3[nH]nc(-c4cnn(CC(=O)N5CCC(OC)C5)c4)c3cn2)c1Cl (stereo not drawn)        < 100 nM
3  COc1cc(OC)c(F)c(-c2cc3[nH]nc(-c4ccc5c(c4)CC(C(=O)N4CCN(C)CC4)O5)c3cn2)c1F (stereo not drawn)        < 100 nM
4  CC(C)n1cc(-c2cc3ncc(-c4ccc5c(c4)C(=O)NC5)n3nc2O[C@H]2CCOC2)cn1    10 to 100 nM
5  O=C(NCC(F)(F)F)Nc1cccc(-n2cnc3cc(-c4ccc(C(=O)NCc5cccnc5)cc4)ccc32)c1         < 10 nM

Value lookup for IC50; key = [2H]C([2H])([2H])NC(=O)c1cc(C)c(F)c(-c2cnn3cc(-c4cnn(C5CCN(C(C)C)CC5)n4)c(N[C@H]4CCOC4)nc23)c1 < 10 nM

Do the same for O=C(NCC(F)(F)F)Nc1cccc(-n2cnc3cc(-c4ccc(C(=O)NCC5CC5)cc4)ccc32)c1 please < 10 nM

Do the same for C=CC(=O)NCc1cc2c(cn1)CN(c1c(F)c(OC)cc(OC)c1F)C(=O)N2CC1CCN(C(=O)NC(C)C)CC1 please > 200 nM

###

Below: molecules with IC50 recorded for Fibroblast growth factor receptor 3 (Homo sapiens) in separate published works.

> print(dat)
                                   molecule  observed.value
1  CNC(=O)c1cc(F)c(F)c(-c2cnc3cc(-c4cnn(-c5ccccn5)c4)c(O[C@H]4CCOC4)nn23)c1         < 10 nM
2  O=C(NCC(F)(F)F)Nc1cccc(-n2cnc3cc(-c4cnn(C5CCN(C(=O)C6CCCO6)CC5)c4)ccc32)c1 (stereo not shown)         < 10 nM
3  CNC(=O)c1cccc(-c2cnc3cc(-c4cnn(C)c4)c(OC4CC(C#N)C4)nn23)c1 (stereo not shown)   100 to 400 nM
4  Cc1cccc(Cl)c1-c1nc2c3cc(-c4cnn(C5CCN(C)CC5)c4)cnc3ccn2c1CO       1 to 5 nM
5  O=C(NCC(F)(F)F)Nc1cccc(-c2cnc3cc(-c4cnn(C5CCN(S(=O)(=O)Cc6ccccc6)CC5)c4)cnn23)c1         < 10 nM
6  COc1cc(OC)c(F)c(-c2cc3[nH]nc(-c4ccnc(N5CCN(C)CC5)c4)c3cn2)c1F        < 100 nM

Test system Fibroblast growth factor receptor 3 (Homo sapiens); read-out IC50; what value for NC(=O)c1c(-c2c(Cl)cccc2Cl)nc2c3cc(-c4cnn(C5CCOC5)c4)cnc3ccn12 (stereo not shown) ? < 0.1 nM

Do the same for COc1cc(OC)c(F)c(N2Cc3cnc(N)c(C)c3N(Cc3cnn(C)c3)C2=O)c1F please < 100 nM

Do the same for CNC(=O)c1cc(F)c(F)c(-c2cnc3cc(-c4cnn(C5COC5)c4)c(O[C@H]4CCOC4)nn23)c1 please < 10 nM

Do the same for COc1cc(OC)c(F)c(N2Cc3cnc(NC[C@H](C)O)cc3C3(CC3)C2=O)c1F please < 100 nM

Do the same for COc1cc(OC)c(F)c(N2Cc3cnc(Nc4cnn(C)c4)cc3C3(CC3)C2=O)c1F please < 100 nM

Do the same for CN1CCC(CNC(=O)c2cccc(-c3ccc4c(c3)ncn4-c3cccc(NC(=O)NCC(F)(F)F)c3)c2)CC1 please < 10 nM

Do the same for N#Cc1cc(Cn2cc(-c3cnc4ccn5c(CO)c(-c6c(Cl)cccc6Cl)nc5c4c3)cn2)ccn1 please < 1 nM
